Tested on: En. cloacae 005
Conditions: En. cloacae 005; CAMHB, 37°C, 16–20 h
Experimental: Briefly, bacteria were suspended in cation-adjusted Mueller–Hinton broth (CAMHB; Oxoid, UK) for antibiotics, or MHB (Oxoid, UK) for peptidomimetics to obtain 5 × 10^5 colony forming unit (CFU) ml^−1. […] Positive controls contained only microbes, and blanks contained only media. […] Geometric mean MIC of the peptoids were calculated to evaluate the broad overview of antimicrobial activity across the pathogens.
Here the recorded MIC of antibiotics is given for each entry.
Answer shape: numeric part, then the unit.

Worked examples, 2 compounds total:
[
  {
    "COMPOUND": "CC(C)(O/N=C(\\C(=O)N[C@@H]1C(=O)N2C(C(=O)[O-])=C(C[n+]3ccccc3)CS[C@H]12)c1csc(N)n1)C(=O)O [Cefaz, ceftazidime, reference compound]",
    "MIC of antibiotics": "128 µg/mL"
  },
  {
    "COMPOUND": "C[C@H]1[C@H](NC(=O)/C(=N\\OC(C)(C)C(=O)O)c2csc(N)n2)C(=O)N1S(=O)(=O)O [Azt, aztreonam, reference compound]",
    "MIC of antibiotics": "16 µg/mL"
  }
]

Q) Would you kindly share the measured MIC of antibiotics for CO/N=C(\C(=O)N[C@@H]1C(=O)N2C(C(=O)O)=C(COC(C)=O)CS[C@H]12)c1csc(N)n1 [Cefot, cefotaxime, reference compound] ?
A) 128 µg/mL

----------
Here the recorded MIC of peptidomimetics is given for each entry.
Tested on: P. aeruginosa AR-1270
Conditions: AR-1270
Protocol: Briefly, bacteria were suspended in cation-adjusted Mueller–Hinton broth (CAMHB; Oxoid, UK) for antibiotics, or MHB (Oxoid, UK) for peptidomimetics to obtain 5 × 10^5 colony forming unit (CFU) ml^−1. […] Positive controls contained only microbes, and blanks contained only media. […] Geometric mean MIC of the peptoids were calculated to evaluate the broad overview of antimicrobial activity across the pathogens.
Square brackets hold non-standard residues; d marks the D form. Peptide text beside a SMILES is read from it. Nspe(4-Br) = C[C@H](NCC(=O)O)c1ccc(Br)cc1; N(tridecyl)Gly = CCCCCCCCCCCCCNCC(=O)O; Nspe = C[C@H](NCC(=O)O)c1ccccc1; NDecylGly = CCCCCCCCCCNCC(=O)O; Nlys = NCCCCNCC(=O)O
Please respond with the number in µM and leave the unit unwritten.

[
  {
    "COMPOUND": "C[C@@H](c1ccc(Br)cc1)N(CC(N)=O)C(=O)CN(C(=O)CN(CCCCN)C(=O)CN(C(=O)CN(C(=O)CNCCCCN)[C@@H](C)c1ccccc1)[C@@H](C)c1ccc(Br)cc1)[C@@H](C)c1ccccc1 [TM2] (H-[Nlys][Nspe][Nspe(4-Br)][Nlys][Nspe][Nspe(4-Br)]-NH2)",
    "MEASUREMENT_UNIT": "µM",
    "MIC of peptidomimetics": 29.0
  },
  {
    "COMPOUND": "C[C@@H](c1ccc(Br)cc1)N(CC(=O)N(CCCCN)CC(=O)N(CC(=O)N(CC(=O)N(CCCCN)CC(N)=O)[C@@H](C)c1ccc(Br)cc1)[C@@H](C)c1ccc(Br)cc1)C(=O)CN(C(=O)CNCCCCN)[C@@H](C)c1ccc(Br)cc1 [TM14] (H-[Nlys][Nspe(4-Br)][Nspe(4-Br)][Nlys][Nspe(4-Br)][Nspe(4-Br)][Nlys]-NH2)",
    "MEASUREMENT_UNIT": "µM",
    "MIC of peptidomimetics": 45.9
  },
  {
    "COMPOUND": "CCCCCCCCCCNCC(=O)N(CCCCN)CC(=O)N(CC(=O)N(CC(=O)N(CCCCN)CC(=O)N(CC(=O)N(CC(N)=O)[C@@H](C)c1ccccc1)[C@@H](C)c1ccccc1)[C@@H](C)c1ccccc1)[C@@H](C)c1ccccc1 [TM8] (H-[NDecylGly][Nlys][Nspe][Nspe][Nlys][Nspe][Nspe]-NH2)",
    "MEASUREMENT_UNIT": "µM",
    "MIC of peptidomimetics": 14.0
  },
  {
    "COMPOUND": "CCCCCCCCCCCCCNCC(=O)N(CCCCN)CC(=O)N(CC(=O)N(CC(=O)N(CCCCN)CC(=O)N(CCCCN)CC(N)=O)[C@@H](C)c1ccccc1)[C@@H](C)c1ccccc1 [TM15] (H-[N(tridecyl)Gly][Nlys][Nspe][Nspe][Nlys][Nlys]-NH2)",
    "MEASUREMENT_UNIT": "µM",
    "MIC of peptidomimetics": 32.5
  }
]

Q) Would you kindly share the measured MIC of peptidomimetics for C[C@@H](c1ccc(Br)cc1)N(CC(=O)N(CCCCN)CC(=O)N(CC(=O)N(CC(=O)N(CCCCN)CC(N)=O)[C@@H](C)c1ccc(Br)cc1)[C@@H](C)c1ccccc1)C(=O)CN(C(=O)CNCCCCN)[C@@H](C)c1ccccc1 [TM12] (H-[Nlys][Nspe][Nspe(4-Br)][Nlys][Nspe][Nspe(4-Br)][Nlys]-NH2) ?
A) 103.8

----------
system: K. pneumoniae JIE2709; settings: JIE2709
Square brackets hold non-standard residues; d marks the D form. Peptide text beside a SMILES is read from it. Nspe(4-Br) = C[C@H](NCC(=O)O)c1ccc(Br)cc1; N(tridecyl)Gly = CCCCCCCCCCCCCNCC(=O)O; Nspe = C[C@H](NCC(=O)O)c1ccccc1; NDecylGly = CCCCCCCCCCNCC(=O)O; Nlys = NCCCCNCC(=O)O
OBSERVATION_TYPE: MIC of peptidomimetics (µM)
Please respond with the number in µM and leave the unit unwritten.

[
  {
    "COMPOUND": "CCCCCCCCCCNCC(=O)N(CCCCN)CC(=O)N(CC(=O)N(CC(=O)N(CCCCN)CC(=O)N(CC(=O)N(CC(N)=O)[C@@H](C)c1ccccc1)[C@@H](C)c1ccccc1)[C@@H](C)c1ccccc1)[C@@H](C)c1ccccc1 [TM8] (H-[NDecylGly][Nlys][Nspe][Nspe][Nlys][Nspe][Nspe]-NH2)",
    "OBSERVATION_TYPE": "MIC of peptidomimetics",
    "MEASUREMENT": 14.0
  }
]

Q) Would you kindly share the measured MIC of peptidomimetics for CCCCCCCCCCCCCNCC(=O)N(CCCCN)CC(=O)N(CC(=O)N(CC(=O)N(CCCCN)CC(=O)N(CCCCN)CC(N)=O)[C@@H](C)c1ccccc1)[C@@H](C)c1ccccc1 [TM15] (H-[N(tridecyl)Gly][Nlys][Nspe][Nspe][Nlys][Nlys]-NH2) ?
A) 129.8

Q) Would you kindly share the measured MIC of peptidomimetics for C[C@@H](c1ccc(Br)cc1)N(CC(=O)N(CCCCN)CC(=O)N(CC(=O)N(CC(=O)N(CCCCN)CC(N)=O)[C@@H](C)c1ccc(Br)cc1)[C@@H](C)c1ccc(Br)cc1)C(=O)CN(C(=O)CNCCCCN)[C@@H](C)c1ccc(Br)cc1 [TM14] (H-[Nlys][Nspe(4-Br)][Nspe(4-Br)][Nlys][Nspe(4-Br)][Nspe(4-Br)][Nlys]-NH2) ?
A) 45.9

Q) Would you kindly share the measured MIC of peptidomimetics for C[C@@H](c1ccc(Br)cc1)N(CC(N)=O)C(=O)CN(C(=O)CN(CCCCN)C(=O)CN(C(=O)CN(C(=O)CNCCCCN)[C@@H](C)c1ccccc1)[C@@H](C)c1ccc(Br)cc1)[C@@H](C)c1ccccc1 [TM2] (H-[Nlys][Nspe][Nspe(4-Br)][Nlys][Nspe][Nspe(4-Br)]-NH2) ?
A) 116.2

Q) Would you kindly share the measured MIC of peptidomimetics for C[C@@H](c1ccc(Br)cc1)N(CC(=O)N(CCCCN)CC(=O)N(CC(=O)N(CC(=O)N(CCCCN)CC(N)=O)[C@@H](C)c1ccc(Br)cc1)[C@@H](C)c1ccccc1)C(=O)CN(C(=O)CNCCCCN)[C@@H](C)c1ccccc1 [TM12] (H-[Nlys][Nspe][Nspe(4-Br)][Nlys][Nspe][Nspe(4-Br)][Nlys]-NH2) ?
A) 103.8

----------
test system: A. baumannii 006; details: A. baumannii 006; MHB (melimine/Mel4 with 0.2% BSA, 0.01% acetic acid); mean MIC
Square brackets hold non-standard residues; d marks the D form. Peptide text beside a SMILES is read from it. Nspe(4-Br) = C[C@H](NCC(=O)O)c1ccc(Br)cc1; N(tridecyl)Gly = CCCCCCCCCCCCCNCC(=O)O; Nspe = C[C@H](NCC(=O)O)c1ccccc1; NDecylGly = CCCCCCCCCCNCC(=O)O; Nlys = NCCCCNCC(=O)O
OBSERVATION_TYPE: MIC of peptidomimetics

Worked examples, 5 compounds total:
[
  {
    "COMPOUND": "C[C@@H](c1ccc(Br)cc1)N(CC(N)=O)C(=O)CN(C(=O)CN(CCCCN)C(=O)CN(C(=O)CN(C(=O)CNCCCCN)[C@@H](C)c1ccccc1)[C@@H](C)c1ccc(Br)cc1)[C@@H](C)c1ccccc1 [TM2] (H-[Nlys][Nspe][Nspe(4-Br)][Nlys][Nspe][Nspe(4-Br)]-NH2)",
    "MIC of peptidomimetics": "7.8 µg/mL"
  },
  {
    "COMPOUND": "C[C@@H](c1ccccc1)N(CC(N)=O)C(=O)CN(CCCCN)C(=O)CN(C(=O)CN(C(=O)CN(CCCCN)C(=O)CN(C(=O)CN(C(=O)CN(CCCCN)C(=O)CN(C(=O)CN(C(=O)CNCCCCN)[C@@H](C)c1ccccc1)[C@@H](C)c1ccccc1)[C@@H](C)c1ccccc1)[C@@H](C)c1ccccc1)[C@@H](C)c1ccccc1)[C@@H](C)c1ccccc1 [TM6] (H-[Nlys][Nspe][Nspe][Nlys][Nspe][Nspe][Nlys][Nspe][Nspe][Nlys][Nspe]-NH2)",
    "MIC of peptidomimetics": "7.8 µg/mL"
  },
  {
    "COMPOUND": "CCCCCCCCCCCCCNCC(=O)N(CCCCN)CC(=O)N(CC(=O)N(CC(=O)N(CCCCN)CC(=O)N(CCCCN)CC(N)=O)[C@@H](C)c1ccccc1)[C@@H](C)c1ccccc1 [TM15] (H-[N(tridecyl)Gly][Nlys][Nspe][Nspe][Nlys][Nlys]-NH2)",
    "MIC of peptidomimetics": "62.5 µg/mL"
  },
  {
    "COMPOUND": "C[C@@H](c1ccccc1)N(CC(N)=O)C(=O)CN(C(=O)CN(CCCCN)C(=O)CN(C(=O)CN(C(=O)CN(CCCCN)C(=O)CN(C(=O)CN(C(=O)CN(CCCCN)C(=O)CN(C(=O)CN(C(=O)CNCCCCN)[C@@H](C)c1ccccc1)[C@@H](C)c1ccccc1)[C@@H](C)c1ccccc1)[C@@H](C)c1ccccc1)[C@@H](C)c1ccccc1)[C@@H](C)c1ccccc1)[C@@H](C)c1ccccc1 [TM1] (H-[Nlys][Nspe][Nspe][Nlys][Nspe][Nspe][Nlys][Nspe][Nspe][Nlys][Nspe][Nspe]-NH2)",
    "MIC of peptidomimetics": "3.9 µg/mL"
  },
  {
    "COMPOUND": "C[C@@H](c1ccc(Br)cc1)N(CC(=O)N(CCCCN)CC(=O)N(CC(=O)N(CC(=O)N(CCCCN)CC(N)=O)[C@@H](C)c1ccc(Br)cc1)[C@@H](C)c1ccc(Br)cc1)C(=O)CN(C(=O)CNCCCCN)[C@@H](C)c1ccc(Br)cc1 [TM14] (H-[Nlys][Nspe(4-Br)][Nspe(4-Br)][Nlys][Nspe(4-Br)][Nspe(4-Br)][Nlys]-NH2)",
    "MIC of peptidomimetics": "15.6 µg/mL"
  }
]

Q) Would you kindly share the measured MIC of peptidomimetics for CCCCCCCCCCNCC(=O)N(CCCCN)CC(=O)N(CC(=O)N(CC(=O)N(CCCCN)CC(=O)N(CC(=O)N(CC(N)=O)[C@@H](C)c1ccccc1)[C@@H](C)c1ccccc1)[C@@H](C)c1ccccc1)[C@@H](C)c1ccccc1 [TM8] (H-[NDecylGly][Nlys][Nspe][Nspe][Nlys][Nspe][Nspe]-NH2) ?
A) 3.9 µg/mL

Q) Would you kindly share the measured MIC of peptidomimetics for C[C@@H](c1ccc(Br)cc1)N(CC(=O)N(CCCCN)CC(=O)N(CC(=O)N(CC(=O)N(CCCCN)CC(N)=O)[C@@H](C)c1ccc(Br)cc1)[C@@H](C)c1ccccc1)C(=O)CN(C(=O)CNCCCCN)[C@@H](C)c1ccccc1 [TM12] (H-[Nlys][Nspe][Nspe(4-Br)][Nlys][Nspe][Nspe(4-Br)][Nlys]-NH2) ?
A) 125 µg/mL
